Measured L-type Ca2+ % inhibition @ 10 μM values are reported for all entries that follow.
system: L-Type Calcium Channels; assay: L-type calcium channels: inhibition of binding of [3H]nitrendipine to rat cerebral cortex membranes; conditions: 10 μM; [3H]nitrendipine binding
OBSERVABLE: L-type Ca2+ % inhibition @ 10 μM (%)

> print(dat)
                                    compound          subject.of.test  reported
 1  CCc1nc(N)nc(N)c1-c1ccc(Cl)cc1 [CEN-48, reference compound]  L-Type Calcium Channels        −1
 2             Nc1cnc(-c2cccc(Cl)c2Cl)c(N)n1  L-Type Calcium Channels         7
 3        Nc1nnc(-c2cccc(Oc3ccccc3)c2)c(N)n1  L-Type Calcium Channels         7
 4         Nc1cnc(-c2cc(Cl)cc(Cl)c2Cl)c(N)n1  L-Type Calcium Channels         9
 5  N=c1nc(N)c(-c2ccccc2Oc2ccccc2)nn1CC(F)(F)F  L-Type Calcium Channels       −18
 6             Nc1nnc(-c2ccc3ccccc3c2)c(N)n1  L-Type Calcium Channels         8
 7   N=c1nc(N)c(-c2cccc(Cl)c2Cl)nn1CC(F)(F)F  L-Type Calcium Channels       −16
 8  Nc1nnc(-c2cc(C(F)(F)F)cc(C(F)(F)F)c2)c(N)n1  L-Type Calcium Channels         3
 9  N=c1nc(N)c(-c2cc(Cl)cc(Cl)c2Cl)nn1CC(F)F  L-Type Calcium Channels       −15
10          Nc1nnc(-c2sc(Cl)c(Cl)c2Cl)c(N)n1  L-Type Calcium Channels        17

====

biological target: hERG (Homo sapiens); test: hERG: inhibition of binding of [3H]astemizole to HEK-293 cells expressing human recombinant hERG
Sequence (Q12809 whole entry): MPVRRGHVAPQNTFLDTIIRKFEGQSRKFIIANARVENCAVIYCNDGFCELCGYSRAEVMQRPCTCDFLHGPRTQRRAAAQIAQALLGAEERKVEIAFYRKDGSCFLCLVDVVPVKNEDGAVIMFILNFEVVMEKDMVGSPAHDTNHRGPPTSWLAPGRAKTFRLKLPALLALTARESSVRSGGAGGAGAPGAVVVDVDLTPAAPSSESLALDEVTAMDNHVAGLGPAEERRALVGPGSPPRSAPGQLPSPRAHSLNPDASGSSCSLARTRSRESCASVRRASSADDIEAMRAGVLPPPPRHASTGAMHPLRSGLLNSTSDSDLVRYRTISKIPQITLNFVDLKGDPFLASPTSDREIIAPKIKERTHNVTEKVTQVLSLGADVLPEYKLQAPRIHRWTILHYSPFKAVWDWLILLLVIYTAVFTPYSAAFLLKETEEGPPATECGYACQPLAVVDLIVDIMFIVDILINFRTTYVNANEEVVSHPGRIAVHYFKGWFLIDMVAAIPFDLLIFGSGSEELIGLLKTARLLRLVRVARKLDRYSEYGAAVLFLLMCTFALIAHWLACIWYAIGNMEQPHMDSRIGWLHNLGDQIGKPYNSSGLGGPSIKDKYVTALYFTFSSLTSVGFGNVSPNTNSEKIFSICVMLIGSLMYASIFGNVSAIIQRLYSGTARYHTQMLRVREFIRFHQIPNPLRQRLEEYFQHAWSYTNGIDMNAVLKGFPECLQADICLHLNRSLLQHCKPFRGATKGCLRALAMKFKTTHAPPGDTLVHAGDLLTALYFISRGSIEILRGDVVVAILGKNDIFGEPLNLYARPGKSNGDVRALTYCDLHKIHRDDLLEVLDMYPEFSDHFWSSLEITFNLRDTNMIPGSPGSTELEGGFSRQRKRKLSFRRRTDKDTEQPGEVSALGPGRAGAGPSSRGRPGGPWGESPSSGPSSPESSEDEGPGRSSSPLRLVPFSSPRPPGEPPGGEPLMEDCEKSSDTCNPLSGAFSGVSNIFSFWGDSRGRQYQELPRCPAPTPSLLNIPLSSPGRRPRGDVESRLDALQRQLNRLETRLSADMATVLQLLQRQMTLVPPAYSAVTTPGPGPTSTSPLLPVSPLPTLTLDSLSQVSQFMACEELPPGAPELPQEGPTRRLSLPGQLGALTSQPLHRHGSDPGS
pIC50: −log10 of the molar value.
OBSERVABLE: pIC50

> print(dat)
                                    molecule  observable  qual  reported
 1  Nc1nnc(C(c2ccccc2)C2CCCC2)c(N)n1 (centres unmarked)       pIC50     =      4.09
 2           Cn1nc(-c2ccc3ccccc3c2)c(N)nc1=N       pIC50     =      5.40
 3           Cn1nc(-c2cccc3c2CCCC3)c(N)nc1=N       pIC50     =      3.80
 4  Nc1nnc(-c2cc(C(F)(F)F)cc(C(F)(F)F)c2)c(N)n1       pIC50     <      3.70
 5         Nc1nnc(C(c2ccccc2)c2ccccc2)c(N)n1       pIC50     <      3.70
 6             Nc1nnc(-c2ccc(Cl)nc2Cl)c(N)n1       pIC50     =      4.00
 7             Nc1ncc(-c2cccc(Cl)c2Cl)c(N)n1       pIC50     <      3.70
 8          CCn1nc(-c2cccc3ccccc23)c(N)nc1=N       pIC50     =      4.74
 9             Nc1cnc(-c2cccc(Cl)c2Cl)c(N)n1       pIC50     <      3.70
10        Nc1nnc(-c2ccc(Oc3ccccc3)cc2)c(N)n1       pIC50     =      4.72
11  N=c1nc(N)c(-c2ccccc2Oc2ccccc2)nn1CC(F)(F)F       pIC50     =      4.34

// data source = patent US8691818B2
